# System: SNU-C1
# Measurement Description: cells
# Assay type: cell-based
# Reported Conditions: Homo sapiens, SNU-C1, 72 h, read-out: SNU-C1 viab. IC50
Quantity Name: IC50 (nM)
Numbers only, in nM.

Example entries begin here.
O=C(NOCC1CC1)c1ccc(F)c(F)c1Nc1ccc(I)cc1Cl [PD-184352, reference compound] :: 17
COc1cc(NCc2ccc3nc(N)nc(N)c3c2C)cc(OC)c1OC [trimetrexate, reference compound] :: 5100
CC(C)C[C@H](NC(=O)[C@H](Cc1ccccc1)NC(=O)c1cnccn1)B(O)O [bortezomib, reference compound] :: 3

// next entry
query: Could you please provide reported IC50 for COCc1c(C(C)C)nc(C(C)C)c(/C=C/[C@@H](O)C[C@@H](O)CC(=O)O)c1-c1ccc(F)cc1 [cerivastatin, reference compound] ? Thanks!
result: 1900

* * *

# System: SNU-C1
# Measurement Description: cells
# Format: cell-based
# Reported Conditions: basal; read-out: Basal_Viability ATP SNU-C1
pIC50: −log10 of the molar value.
Quantity Name: pIC50

query: Could you please provide reported pIC50 for Cc1nc2ccccc2n1Cc1ccc(Cl)cc1 ? Thanks!
result: < 4.70

* * *

# Tested on: SW480
# Measurement Description: cells
# Format: cell-based
# Reported Conditions: Homo sapiens, SW480; read-out: Basal_Viability ATP SW480
Quantity Name: IC50
// unit must come after the numeric part

query: Could you please provide reported IC50 for COc1cccc2c1C(=O)c1c(O)c3c(c(O)c1C2=O)C[C@@](O)(C(=O)CO)C[C@@H]3O[C@H]1C[C@H](N2CCO[C@H](OC)C2)[C@H](O)[C@H](C)O1 ? Thanks!
result: 1 nM

* * *

# Test system: DLD-1
# Measurement Description: cells
# Format: cell-based
# Reported Conditions: read-out: Basal_Viability ATP DLD-1 summarized IC50
Would you kindly list IC50 for each of these compounds?
One number for each entry, in nM.

C=C(CC)C(=O)c1ccc(OCC(=O)O)c(Cl)c1Cl [NCGC00016260-13] :: 11900
CN(C)c1ccc(C(=C2C=CC(=[N+](C)C)C=C2)c2ccccc2)cc1 [NCGC00013058-02] :: 21.8

// next entry
query: Could you please provide reported IC50 for Oc1ccc(Cl)cc1Cc1cc(Cl)ccc1O [NCGC00091325-09] ? Thanks!
result: 862

* * *

# Tested on: SNU-C1
# Measurement Description: cells
# Type: cell-based
# Reported Conditions: Homo sapiens, SNU-C1, 72 h, Table 2; 72 h, Cell TiterGlo, non-adherent; 20 coded; read-out: SNU-C1 viab. IC50
Quantity Name: pIC50
Answers are plain numbers, as −log10 of the molar value.

query: Could you please provide reported pIC50 for CC(C)C[C@H](NC(=O)[C@H](CCc1ccccc1)NC(=O)CN1CCOCC1)C(=O)N[C@@H](Cc1ccccc1)C(=O)N[C@@H](CC(C)C)C(=O)[C@@]1(C)CO1 [carfilzomib, reference compound] ? Thanks!
result: 9.00

* * *

# Study Target: hGSK3b (Homo sapiens, UniProt P49841)
# Construct: purchased Cerep (LANCE kinase assay platform, contract assay)
# Sequence (P49841 whole entry): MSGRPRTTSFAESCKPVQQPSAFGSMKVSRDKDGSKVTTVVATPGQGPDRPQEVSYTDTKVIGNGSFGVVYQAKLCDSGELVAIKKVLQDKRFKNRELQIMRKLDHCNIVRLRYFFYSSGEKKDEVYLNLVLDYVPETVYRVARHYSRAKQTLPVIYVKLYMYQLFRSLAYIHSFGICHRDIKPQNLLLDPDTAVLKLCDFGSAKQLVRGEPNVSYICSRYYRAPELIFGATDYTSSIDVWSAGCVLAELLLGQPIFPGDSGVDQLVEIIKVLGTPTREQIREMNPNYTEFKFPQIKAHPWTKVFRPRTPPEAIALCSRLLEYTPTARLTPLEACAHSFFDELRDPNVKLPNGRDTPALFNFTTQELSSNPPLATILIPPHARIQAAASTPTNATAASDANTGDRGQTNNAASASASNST
# Measurement Description: Cerep LANCE kinase assay hGSK3b (S1 assay 34)
# Format: biochemical
# Reported Conditions: kinase assay; read-out: GSK3b
pIC50: −log10 of the molar value.
Quantity Name: pIC50

Example entries begin here.
O=C(Nc1ccc([N+](=O)[O-])cc1Cl)c1cc(Cl)ccc1O [Niclosamide] :: < 4.70
COC(=O)Nc1nc2ccc(C(=O)c3cccs3)cc2[nH]1 :: 4.70
COc1cc(-c2ccc(=O)[nH]n2)ccc1OC(F)F :: < 4.70
Cc1nc(N)nc(N)c1-c1ccc(Cl)c(Cl)c1 [metoprine, reference compound] :: < 4.70
Cc1cc(C2CCCCC2)n(O)c(=O)c1 :: < 4.70

Give one value of pIC50 per listed compound.
1. COc1c(C)c2c(c(O)c1C/C=C(\C)CCC(=O)O)C(=O)OC2 [Mycophenolate]
2. O=c1c(-c2ccccc2)c1-c1ccccc1

result:
< 4.70
< 4.70

* * *

# Tested on: DLD-1
# Measurement Description: cells
# Type: cell-based
# Reported Conditions: Homo sapiens, DLD-1, 72 h, Table 2; 72 h, Cell TiterGlo, non-adherent; 20 coded; read-out: DLD-1 viab. IC50
Quantity Name: IC50

Example entries begin here.
Cc1ccc(Nc2nccc(N(C)c3ccc4c(C)n(C)nc4c3)n2)cc1S(N)(=O)=O [pazopanib, reference compound] :: > 20 µM
CCC(C)(C)C(=O)O[C@H]1C[C@@H](C)C=C2C=C[C@H](C)[C@H](CC[C@@H]3C[C@@H](O)CC(=O)O3)[C@H]21 [simvastatin, reference compound] :: > 20 µM

// next entry
query: Write IC50 of CC(C)n1c(/C=C/C(O)CC(O)CC(=O)O)c(-c2ccc(F)cc2)c2ccccc21 (stereo not drawn) [fluvastatin, reference compound] ; system used: DLD-1
result: > 20 µM

* * *

# System: HeLa cells;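 further: value tracks stimulation of 4N DNA content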
# Measurement Description: cells
# Assay type: cell-based
# Reported Conditions: read-out: Hela CellCycMod PI 4N summarized IC50
Quantity Name: IC50

O=C(Nc1ccc([N+](=O)[O-])cc1Cl)c1cc(Cl)ccc1O :: > 10 µM

// next entry
query: Could you please provide reported IC50 for O=C1C(I)=CC(=C(c2cc(I)c(O)c(I)c2)c2ccccc2C(=O)O)C=C1I ? Thanks!
result: > 10 µM

* * *

Would you kindly list IC50 for each of these molecules?
# Tested on: DLD-1
# Measurement Description: cells
# Type: cell-based
# Reported Conditions: assay number 23; basal; read-out: Basal_Viability ATP DLD-1 summarized IC50

CCCCCCCCCCCC[N+](C)(C)Cc1ccccc1 :: 0.738 µM

Give one value of IC50 per listed molecule.
1. COC(=O)c1ccccc1C(=O)OC
2. O=C(O)c1ccccc1S

result:
> 20 µM
> 20 µM

* * *

# Test system: SW480
# Measurement Description: cells
# Format: cell-based
# Reported Conditions: Homo sapiens, SW480; Table 2; 72 h, Cell TiterGlo, non-adherent; 20 coded; read-out: SW480 viab. IC50
Quantity Name: pIC50
Give bare numbers, as −log10 of the molar value.

query: Write pIC50 of C=C(C)[C@H]1Cc2c(ccc3c2O[C@@H]2COc4cc(OC)c(OC)cc4[C@@H]2C3=O)O1 [rotenone, reference compound] ; system used: SW480
result: 6.80

* * *

# Tested on: HCT116 cells treated with a GSK3β inhibitor
# Measurement Description: cells
# Assay type: cell-based
# Reported Conditions: Homo sapiens, HCT-116, 72 h, read-out: HCT-116 (GSK3β) viab. IC50
Quantity Name: IC50 (nM)
Numbers only, in nM.

Cc1ccc2nc(N)[nH]c(=O)c2c1Sc1ccncc1 [nolatrexed, reference compound] :: 830

query: Could you please provide reported IC50 for CC(C)C[C@H](NC(=O)[C@H](Cc1ccccc1)NC(=O)c1cnccn1)B(O)O [bortezomib, reference compound] ? Thanks!
result: 2

* * *

# Test system: endothelial tube formation in co-cultures of ECFCs and ADSCs treated with VEGF
# Measurement Description: cells
# Type: cell-based, human
Would you kindly list VEGF_ADSC\ECFC Angio CD31 TubeArea IC50/EC50 for each of these compounds?
Give bare numbers, in µM.

Example entries begin here.
O=C1c2c(O)ccc(O)c2C(=O)c2c(NCCNCCO)ccc(NCCNCCO)c21 [NCGC00015693-09] :: 0.0044
COc1ccc2cc1Oc1ccc(cc1)C[C@H]1c3c(cc4c(c3Oc3cc5c(cc3OC)CCN(C)[C@@H]5C2)OCO4)CCN1C [NCGC00161621-03] :: 3.0213
CC[C@]1(O)C[C@H]2CN(CCc3c([nH]c4ccccc34)[C@@](C(=O)OC)(c3cc4c(cc3OC)N(C=O)[C@H]3[C@@](O)(C(=O)OC)[C@H](OC(C)=O)[C@]5(CC)C=CCN6CC[C@]43[C@@H]65)C2)C1 [NCGC00263543-01] :: 0.0065
CCN(CC)CCOc1ccc(C(O)(Cc2ccc(Cl)cc2)c2ccc(C)cc2)cc1 (centres unmarked) [NCGC00165907-03] :: 3.2104
Cc1ccc2nc(N)[nH]c(=O)c2c1Sc1ccncc1.Cl.Cl [NCGC00263580-01] :: 7.3662

Give one value of VEGF_ADSC\ECFC Angio CD31 TubeArea IC50/EC50 per listed compound.
1. CCCCCCCCCCCCCCCC[N+](C)(C)CC.[Br-] [NCGC00166120-02]
2. COc1ccc2cc3[n+](cc2c1OC)CCc1cc2c(cc1-3)OCO2 [NCGC00016526-07]
3. c1ccc2c(c1)Sc1ccccc1N2CC1CN2CCC1CC2 (centres unmarked) [NCGC00183046-03]
4. Cc1cc(O)c2ccccc2c1O [NCGC00253592-01]
5. CC(=O)[C@]1(O)Cc2c(O)c3c(c(O)c2[C@@H](O[C@H]2C[C@H](N)[C@H](O)[C@H](C)O2)C1)C(=O)c1ccccc1C3=O [NCGC00093976-08]

result:
1: 1.1378; 2: 2.6815; 3: 9.4389; 4: 4.8933; 5: 0.0208

Data origin, for the record: paper PMC4503722
